Biological target: LmjIPCS (inositol phosphorylceramide synthase from L. major) (Leishmania major)
Sequence (E9AFX2 1-338): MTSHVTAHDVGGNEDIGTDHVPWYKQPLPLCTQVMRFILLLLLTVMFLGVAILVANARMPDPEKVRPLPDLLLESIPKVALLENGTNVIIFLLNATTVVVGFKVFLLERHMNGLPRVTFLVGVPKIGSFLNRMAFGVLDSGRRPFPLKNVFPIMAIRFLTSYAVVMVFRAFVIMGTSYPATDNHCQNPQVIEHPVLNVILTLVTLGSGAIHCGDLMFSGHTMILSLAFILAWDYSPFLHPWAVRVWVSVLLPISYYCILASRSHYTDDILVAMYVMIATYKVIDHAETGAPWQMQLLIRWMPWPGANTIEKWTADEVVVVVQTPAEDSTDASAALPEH
Test: biochemical
Assay type: biochemical
Settings: read-out: 20mM inhibition LmjIPCS
Would you mind telling me the reported inhibition at 20000 µM of each entry?
Give bare numbers, in %.

Reference set, count: 3
> print(dat)
                                   compound  readout.unit  experimental.result
1  CCN1C[C@]2(C)CC[C@H](OC)[C@@]34C1[C@]1(OCO[C@@]15C[C@H](OC)[C@H]1C[C@]3(O)[C@@H]5[C@H]1OC)[C@@H](OC(C)=O)[C@H]24             %                   22
2          Cc1ccnc(NS(=O)(=O)c2ccc(N)cc2)n1             %                 3.51
3                            Sc1nc2ccccc2s1             %                   24

Go through the items and report each one's inhibition at 20000 µM.
1. Cn1nnnc1SCC1=C(C(=O)O)N2C(=O)[C@@H](NC(=O)[C@H](O)c3ccccc3)[C@H]2SC1
2. c1ccc(/N=N/c2ccccc2)cc1
3. NNCCc1ccccc1
4. OCCN1C[C@H](O)[C@@H](O)[C@H](O)[C@H]1CO
5. COc1ccc(Cc2nccc3cc(OC)c(OC)cc23)cc1OC

10
2.28
27
-0.821
21

Reported inhibition at 20000 µM, compound CC(C)NCC(O)COc1cccc2[nH]ccc12 (stereo not drawn) : ____
16
